experiment_description: EMT-state selective cytotoxicity in co-culture – imaging, PC-3E GFP, TEM4-18 mCherry, primary screen (AID 1345086);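 also: cells exposed to compound for 72 h before imaging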
condition_notes: PC-3E GFP / TEM4-18 mCherry co-culture, imaging cell counts; measured here: mesenchymal TEM4-18 mCherry cell survival; at 1 µM
Peptide text beside a SMILES is read from it.
Parameter normalised cell number: see the listing below.
Lab note: record just the number, no unit beside it.

The cases that follow already have their normalised cell number on record.
1. CO/N=C1\CN(c2nc3c(cc2F)c(=O)c(C(=O)O)cn3C2CC2)CC1CN (configuration not stated)
1.24
2. COC(=O)[C@H](Cc1ccccc1)NC(=O)[C@@H](N)CC(=O)O (H-Asp-Phe-OMe)
1.24
3. CCN(CC)CCOC(=O)C(Cc1cccc2ccccc12)CC1CCCO1 (configuration not stated)
1.06
4. Cn1c([N+](=O)[O-])cnc1COC(N)=O
1.01
5. CCn1cc(C(=O)O)c(=O)c2cc3c(cc21)OCO3
1.25
6. Nc1nc2c(ncn2CCC(CO)CO)c(=O)[nH]1
0.96
7. CC(N)CCCC(C)(C)O (configuration not stated)
0.93
8. O=C(O)CCCCCCCC(=O)O
1.07
9. CCOC(=O)[C@H](CCc1ccccc1)N[C@@H](C)C(=O)N1[C@H](C(=O)O)C[C@@H]2CCC[C@@H]21
0.91
10. COc1ccc(CN2CCN(C(c3ccc(F)cc3)c3ccc(F)cc3)CC2)c(OC)c1OC
1.03

What the record says about CCC1=C(C)CN(C(=O)NCCc2ccc(S(=O)(=O)NC(=O)NC3CCC(C)CC3)cc2)C1=O (configuration not stated) : normalised cell number is 1.05

What the record says about CCCc1nc(C)c2c(=O)[nH]c(-c3cc(S(=O)(=O)N4CCN(CC)CC4)ccc3OCC)nn12 : normalised cell number is 1.03

What the record says about Cc1nc2n(c(=O)c1CCN1CCC(c3noc4cc(F)ccc34)CC1)CCC[C@H]2O : normalised cell number is 0.98

====

Parameter period change: see the listing below.
experiment_description: compounds altering circadian rhythm period length – cell-based, LOPAC library, luminescence reporter (AID 2774);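 also: values are relative to mean of DMSO wells on each plate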
condition_notes: circadian reporter cells, at 7 µM, actives lie on both sides
The source made the active and inactive calls. The rule behind the calls is not given here.

The cases that follow already have their period change on record.
1. NC(Cc1ccc(Cl)cc1)C(=O)O (stereo unspecified)
-0.015 h (inactive)
2. CCCCC1C(=O)N(c2ccccc2)N(c2ccccc2)C1=O
0.01 h (inactive)
3. CC(=O)OCC1=C(C(=O)O)N2C(=O)[C@@H](NC(=O)CSc3ccncc3)[C@H]2SC1
0.035 h (inactive)

What the record says about CCOC(=O)C1=C[C@]2(CC)CCCN3CCc4c(n1c1ccccc41)[C@@H]32 : period change is 0 h (inactive)

What the record says about NNc1nncc2ccccc12 : period change is 0.12 h (inactive)

What the record says about CC(C)NCC(O)COc1ccc(CCOCC2CC2)cc1 (stereo unspecified) : period change is 0.03 h (inactive)

What the record says about COC(=O)[C@H]1[C@H]2C[C@@H]3c4[nH]c5cc(OC)ccc5c4CCN3C[C@H]2C[C@@H](OC(=O)c2cc(OC)c(OC)c(OC)c2)[C@@H]1OC : period change is 0.165 h (inactive)

What the record says about NC(CO)C(=O)NNCc1ccc(O)c(O)c1O (stereo unspecified) : period change is 0.075 h (inactive)

What the record says about O=C(CCNNC(=O)c1ccncc1)NCc1ccccc1 : period change is -0.045 h (inactive)

What the record says about COCCCC/C(=N\OCCN)c1ccc(C(F)(F)F)cc1 : period change is -0.015 h (inactive)

What the record says about CN1CCC(=C2c3ccccc3CC(=O)c3sccc32)CC1 : period change is -0.04 h (inactive)
